Target: UniProtKB P10636
Assay: MCE Phenols Library screening, tau biosensor cell seeding assay (AvZ)
Type: cell-based
Conditions: Z score, replicate 2
*1 amine or outer side, *2 acyl side, *3 side chain or, on linkers, in order; H or OH if unused. Where a SMILES comes first, the peptide text is derived from it. Bridges are numbered along the chain shown (N, C = ends). [ ]: non-standard residue; d: D form. hTyr(3S-OH,4S-OH,3'-OSO3H) = N[C@H](C(=O)O)[C@H](O)[C@@H](O)c1ccc(O)c(OS(=O)(=O)O)c1; Orn(4R-OH,5R-OH) = O=C([C@H](C[C@@H](O)[C@@H](O)N[*:3])N[*:1])[*:2]; Pro(3S-OH,4S-Me) = C[C@H]1CN[C@H](C(=O)O)[C@H]1O; Gln(3R-OH) = NC(=O)C[C@@H](O)[C@H](N)C(=O)O; Hyp = O=C(O)[C@@H]1C[C@@H](O)CN1
QUANTITY_NAME: Z Repl 2
# respond with the number and nothing more

Before answering, review these 10 worked examples.
COMPOUND	TEST_TARGET	MEASURED_NUMBER
CCCCCCCCC/C=C/C(=O)CCc1ccc(O)c(OC)c1 [[10]-Shogaol]	UniProtKB P10636	-0.064
C[C@@H]1O[C@@H](Oc2c(-c3ccc(O)cc3)oc3cc(O[C@@H]4O[C@@H](C)[C@H](O)[C@@H](O)[C@H]4O[C@@H]4O[C@H](CO)[C@@H](O)[C@H](O)[C@H]4O)cc(O)c3c2=O)[C@H](O)[C@H](O)[C@H]1O [Grosvenorine]	UniProtKB P10636	0.703
CC(C)(c1ccc(O)cc1)c1ccc(O)cc1 [Bisphenol A]	UniProtKB P10636	0.085
Cc1cc(O)c(C)c2c1O[C@](C)(CCC[C@H](C)CCC[C@H](C)CCCC(C)C)CC2 [?-Tocopherol]	UniProtKB P10636	-0.786
O=C(O)CC(=O)OC[C@H]1O[C@@H](Oc2c(-c3ccc(O)c(O)c3)oc3cc(O)cc(O)c3c2=O)[C@H](O)[C@@H](O)[C@@H]1O	UniProtKB P10636	-0.958
CC(C)=CCc1c(O)cc2c(c1O)C(=O)C[C@@H](c1ccc(O)cc1)O2 [(2S)-6-Prenylnaringenin]	UniProtKB P10636	0.268
O=c1c(O)c(-c2ccc(O)c(O)c2)oc2c(O[C@@H]3O[C@H](CO)[C@@H](O)[C@H](O)[C@H]3O)c(O)cc(O)c12 [Gossypin]	UniProtKB P10636	-0.884
CC(=O)c1cc(O)ccc1O [2,5-Dihydroxyacetophenone]	UniProtKB P10636	-0.663
O=c1c(-c2ccc(O)cc2)coc2c([C@@H]3O[C@H](CO[C@@H]4OC[C@@H](O)[C@H](O)[C@H]4O)[C@@H](O)[C@H](O)[C@H]3O)c(O)ccc12 [Puerarin 6''-O-Xyloside]	UniProtKB P10636	-0.868
O=C1O[C@H]2[C@@H]3OC(=O)c4cc(O)c(O)c(O)c4-c4c(cc(O)c(O)c4O)C(=O)OC[C@H]2O[C@@H](OC(=O)c2cc(O)c(O)c(O)c2)[C@@H]3OC(=O)c2cc(O)c(O)c3c2[C@@H]2C1=CC(=O)[C@](O)(O3)C2(O)O [Geraniin]	UniProtKB P10636	-1.184

Given the entry C[C@@H](O)[C@@H]1NC(=O)[C@@H](N)C[C@@H](O)[C@@H](O)NC(=O)[C@@H]2[C@@H](O)[C@@H](C)CN2C(=O)[C@H]([C@H](O)CC(N)=O)NC(=O)[C@H]([C@H](O)[C@@H](O)c2ccc(O)c(OS(=O)(=O)O)c2)NC(=O)[C@@H]2C[C@@H](O)CN2C1=O [FR179642] (H-[Orn(4R-OH,5R-OH)]T[Hyp][hTyr(3S-OH,4S-OH,3'-OSO3H)][Gln(3R-OH)][Pro(3S-OH,4S-Me)]; lactam 1-C) , report its measured Z Repl 2. 0.887

###

Target: UniProt:P10636
Assay: MCE Phenols Library screening, tau biosensor cell seeding assay (AvZ)
Type: cell-based
Details: Z score, replicate 1
Property: Z repl 1; scope: individual compounds
Please give the numeric answer without any surrounding text.

Known Z repl 1 results, listed for orientation:
COMPOUND	TEST_TARGET	Z repl 1
CC(C)=CCc1c(O[C@@H]2O[C@H](CO)[C@@H](O)[C@H](O)[C@H]2O)cc(O)c2c(=O)c(O[C@@H]3O[C@@H](C)[C@H](O)[C@@H](O)[C@H]3O)c(-c3ccc(O)cc3)oc12 [Epimedoside A]	UniProt:P10636	0.582
CC[C@@]1(O)C(=O)OCc2c1cc1n(c2=O)Cc2cc3cc(O)ccc3nc2-1 [(S)-10-Hydroxycamptothecin]	UniProt:P10636	1.738

Next, consider the following compound.
Hello, I am looking for reported Z repl 1 with UniProt:P10636 for CC(C)=CCc1c(-c2ccc(O)cc2O)oc2c([C@H]3C=C(C)C[C@@H](c4ccc(O)cc4O)[C@@H]3C(=O)c3ccc(O)cc3O)c(O)cc(O)c2c1=O [Kuwanon G] . Could you help? 0.063

###

Molecular target: tau (Homo sapiens, UniProt P10636)
Sequence (P10636 623-695 limits assumed): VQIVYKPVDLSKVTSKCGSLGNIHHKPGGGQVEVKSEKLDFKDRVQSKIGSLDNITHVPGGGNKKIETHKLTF
Experiment: MCE Phenols Library screening, tau biosensor cell seeding assay (AvZ)
Assay type: cell-based
Conditions: average of raw data 1 and 2
Measured av puncta values are reported for all entries that follow.

MOLECULE	av puncta
COc1cc2ccc(=O)oc2c(O)c1OC [Fraxidin]	21554.2

# get_value(readout='av puncta', item= CC1=CC(=O)c2c(O)cccc2C1=O [Plumbagin] ) 2099.32

GET /values?readout=av puncta&item= O=C(/C=C/c1ccc(O)cc1)c1ccc(O)cc1O [Isoliquiritigenin] 23402.5

Could you share which av puncta value was measured for CC(C)=CCc1c(-c2ccc(O)cc2O)oc2c([C@H]3C=C(C)C[C@@H](c4ccc(O)cc4O)[C@@H]3C(=O)c3ccc(O)cc3O)c(O)cc(O)c2c1=O [Kuwanon G] ? 23290.6

Query (molecule): Oc1cccc2ccccc12 [1-Naphthol] ; field requested: av puncta 34150.6

Could you tell me which av puncta is on file for O=C1CC(C(=O)O)c2c1oc(=O)c1cc(O)c(O)c(O)c21 (centres unmarked) [Brevifolincarboxylic acid] ? 8139.85

Could you share which av puncta value was measured for Cc1cc(O)cc(C)c1O [2,6-Dimethylhydroquinone] ? 19881.8

Quick one: av puncta for CC(C)=CCC/C(C)=C/Cc1cc(-c2coc3cc(O)ccc3c2=O)ccc1O [Corylifol A] ? 17502.5

###

Quick reference: Z repl 1 of the listed items.
Target: tau (Homo sapiens, UniProt P10636)
Experiment: MCE Phenols Library screening, tau biosensor cell seeding assay (AvZ)
Type: cell-based
Details: Z score, replicate 1

Take a look at these entries with their results.
Cc1c(O)c(C)c2c(c1O)C(=O)C[C@@H](c1ccc(O)cc1)O2 -0.382
Oc1cc(O)c2c(c1)O[C@H](c1ccc(O)c(O)c1)[C@@H](O)C2 -0.542
CC(C)=CCc1c(O)c(CC=C(C)C)c2oc3c(O)cccc3c(=O)c2c1O -0.784
COc1c(O[C@@H]2O[C@H](CO)[C@@H](O)[C@H](O)[C@H]2O)cc2oc(-c3ccc(O)cc3)cc(=O)c2c1O -0.079
Cc1cc(O)c2c(c1)C(=O)c1cc(O)cc(O)c1C2=O 0.139
Cc1cc(O)c(C)c2c1O[C@](C)(CCC[C@H](C)CCC[C@H](C)CCCC(C)C)CC2 0.056
O=c1cc(-c2ccc(O)cc2)oc2cc(O)c([C@@H]3O[C@H](CO)[C@@H](O)[C@H](O)[C@H]3O)c(O)c12 0.953

Let's switch to this compound now.
Record lookup: for tau (Homo sapiens, UniProt P10636), what Z repl 1 belongs to O=C(O)C=Cc1ccc(O)cc1 ? -0.724

###

Molecular target: tau (Homo sapiens, UniProt P10636)
Assay: MCE Phenols Library screening, tau biosensor cell seeding assay (AvZ)
Format: cell-based
Settings: puncta, replicate 2
QUANTITY_NAME: raw data 2
Just the number, please, no unit after it.

Known results for compounds:
COMPOUND	TEST_TARGET	raw data 2
COc1ccc2c(c1OC)O[C@H]1c3ccc(O)cc3OC[C@@H]21	tau (Homo sapiens, UniProt P10636)	2047.37
O=c1c(O)cc([C@H]2Oc3cc(O)cc(O)c3C[C@H]2O)cc2c([C@H]3Oc4cc(O)cc(O)c4C[C@H]3O)cc(O)c(O)c12	tau (Homo sapiens, UniProt P10636)	248.899
Oc1cc2c(cc1O)[C@@H]1c3ccc(O)c(O)c3OC[C@]1(O)C2	tau (Homo sapiens, UniProt P10636)	3526.25
O=C1C[C@@H](c2ccc(O[C@@H]3O[C@H](CO)[C@@H](O)[C@H](O)[C@H]3O)cc2)Oc2cc(O)ccc21	tau (Homo sapiens, UniProt P10636)	12048
COc1ccc(/C=C/c2cc(O)cc(O)c2)cc1	tau (Homo sapiens, UniProt P10636)	19160.7
O=C(C=Cc1ccc(O)c(O)c1)OC1CC(OC(=O)C=Cc2ccc(O)c(O)c2)(C(=O)O)CC(O)C1O (centres unmarked)	tau (Homo sapiens, UniProt P10636)	6490.43

// query raw data 2 value for entry C[C@@H]1O[C@@H](OC[C@H]2O[C@@H](OCCc3ccc(O)c(O)c3)[C@H](O)[C@@H](OC(=O)/C=C/c3ccc(O)c(O)c3)[C@@H]2O)[C@H](O)[C@H](O)[C@H]1O [Forsythoside I] 5656.67

For O=C(O)Cc1ccccc1O [2-Hydroxyphenylacetic acid] , what is its reported raw data 2? 9347.15

Give the measured raw data 2 of Oc1ccc2c(c1)OC[C@H]1c3cc4c(cc3O[C@@H]21)OCO4 [(-?)?-Maackiain] . 21210.9

May I ask what raw data 2 has been recorded for C[C@H]1CCCC(=O)CCCCCc2cc(O)cc(O)c2C(=O)O1 ? 7675.78

Would you mind telling me what raw data 2 value was observed for O=c1c(O)c(-c2ccc(O)cc2)oc2c(O)c(O)cc(O)c12 ? 707.463

Which raw data 2 reading was recorded for the compound Oc1ccc2c(c1)OC[C@]1(O)Cc3cc(O)c(O)cc3[C@H]21 ? 4834.73

Item under review: NCCc1ccc(O)cc1 . Reported raw data 2? 16873.8

Look up raw data 2 for this compound: COc1ccc2c(=O)c(-c3ccc(O)cc3)coc2c1 11112.8

Suppose we examine the compound CC(C)c1ccc2c(c1O)CC[C@H]1C3=C(CC[C@]21C)C(=O)OC3 [Triptophenolide] ; what raw data 2 value has been reported? 13068.1

Which raw data 2 is reported for this compound? Cc1cc2c(C(C)C)c(O)c(O)c(C=O)c2c(O)c1-c1c(C)cc2c(C(C)C)c(O)c(O)c(C=O)c2c1O 6282.89

I would be grateful if you could share the reported raw data 2 for Oc1cc(O)c2ccc(-c3ccc(O)c(O)c3)[o+]c2c1.[Cl-] [Luteolinidin (chloride)] . 436.094

The origin of these recorded values is paper PMC11784839.
